Reference for the values: patent US10206394B2

# Test system: Avena fatua (AVEFA)
# assay.summary: Glasshouse assay for herbicidal activity (pre- and post-emergence), percentage phytotoxicity
# Type: in vivo
# experimental.parameters: Avena fatua, pre-emergence, 480 h, Rate 250 g/ha; pre-emergence; assessed visually 20 DAA; 100%=total damage, 0%=no damage; read-out: Pre-emergence herbicidal activity (percentage phytotoxicity) AVEFA PRE
# Procedure: Test—Glasshouse Assay for Herbicidal Activity Seeds of a variety of monocotyledonous and dicotyledonous test plants are sown in standard soil in pots. The plants are cultivated for one day (for pre-emergence (PRE)) or for about 12 days (for post-emergence (POST)) under controlled conditions in a glasshouse (warm climate species at 24/18° C., cool climate species at 20/16° C., both at day/night; 16 hours light; 65% humidity). […]
Mark each entry Criterion met if its pest or weed control at 250 g/ha sits below 40%, and Criterion not met for all others.

// known answers, use as guide
Query :: Is 40% strictly greater than the compound's reported pest or weed control at 250 g/ha? compound: CC#Cc1cc(C)c(C2C(=O)CC(CC(=O)NC3CCCC3)C2=O)c(C)c1 (centres unmarked) [Compound A62]
Result :: Criterion not met

Query :: Is 40% strictly greater than the compound's reported pest or weed control at 250 g/ha? compound: CC#Cc1cc(C)c(C2C(=O)CC(CC(=O)NCC#N)C2=O)c(C)c1 (centres unmarked) [Compound A78]
Result :: Criterion met

Query :: Is 40% strictly greater than the compound's reported pest or weed control at 250 g/ha? compound: CC#Cc1cc(C)c(C2C(=O)CC(CC(=O)NCCOC)C2=O)c(CC)c1 (centres unmarked) [Compound A49]
Result :: Criterion not met

Query :: Is 40% strictly greater than the compound's reported pest or weed control at 250 g/ha? compound: Cc1cc(C)c(C2C(=O)CC(C(C)C(=O)NCc3ncccc3Cl)C2=O)c(C)c1 (centres unmarked) [Compound A167]
Result :: Criterion met

Next:
Query :: Is 40% strictly greater than the compound's reported pest or weed control at 250 g/ha? compound: COc1ccccc1CNC(=O)CC1CC(=O)C(c2c(C)cc(-c3ncc(Cl)cc3F)cc2C)C1=O (centres unmarked) [Compound A126]
Result :: Criterion not met

Query :: Is 40% strictly greater than the compound's reported pest or weed control at 250 g/ha? compound: Cc1cc(-n2cc(Cl)cn2)cc(C)c1C1C(=O)CC(CC(=O)NC2CCCC2)C1=O (centres unmarked) [Compound A70]
Result :: Criterion not met

Query :: Is 40% strictly greater than the compound's reported pest or weed control at 250 g/ha? compound: Cc1cc(C)c(C2C(=O)CC(CC(=O)NCc3ncc(C)s3)C2=O)c(C)c1 (centres unmarked) [Compound A105]
Result :: Criterion met
